# Tested on: M2-10B4 marrow stromal cells
# assayOverview: Alkaline phosphatase (ALP) activity assay on whole cell extracts of M2-10B4 marrow stromal cells
# Format: cell-based, mouse
# assayContext: 10 μM oxysterol, 3 days, osteogenic medium
recordedMetric: induction of alkaline phosphatase activity

| compound | systemName | readoutValue |
| --- | --- | --- |
| CC(C)CC[C@@H](O)[C@@H](C)[C@H]1CC[C@H]2[C@@H]3CC=C4C[C@@H](O)CC[C@]4(C)[C@H]3CC[C@]12C [22R-hydroxycholesterol] | M2-10B4 marrow stromal cells | induced |
| CC(C)CCC[C@](C)(O)[C@H]1CC[C@H]2[C@@H]3CC=C4C[C@@H](O)CC[C@]4(C)[C@H]3CC[C@@]21C [20S-hydroxycholesterol] | M2-10B4 marrow stromal cells | induced |
| CC(C)CC[C@H](O)[C@@H](C)[C@H]1CC[C@H]2[C@@H]3CC=C4C[C@@H](O)CC[C@]4(C)[C@H]3CC[C@]12C [22S-hydroxycholesterol] | M2-10B4 marrow stromal cells | induced |

----------
# Tested on: M2 cells
# assayOverview: Troglitazone-induced adipogenesis in M2 cells (oil Red O staining, adipocyte count)
# Format: cell-based, mouse
# assayContext: Tro 10 μM, oxysterol 10 μM, 10 days, alone or in combination
recordedMetric: effect on troglitazone-induced adipogenesis

| compound | readoutValue |
| --- | --- |
| CC(C)CC[C@H](O)[C@@H](C)[C@H]1CC[C@H]2[C@@H]3CC=C4C[C@@H](O)CC[C@]4(C)[C@H]3CC[C@]12C [22S-hydroxycholesterol] | inhibited adipogenesis |
| CC(C)CC[C@@H](O)[C@@H](C)[C@H]1CC[C@H]2[C@@H]3CC=C4C[C@@H](O)CC[C@]4(C)[C@H]3CC[C@]12C [22R-hydroxycholesterol] | inhibited adipogenesis |
| CC(C)CCC[C@](C)(O)[C@H]1CC[C@H]2[C@@H]3CC=C4C[C@@H](O)CC[C@]4(C)[C@H]3CC[C@@]21C [20S-hydroxycholesterol] | inhibited adipogenesis |
